Hey, just so you know, these numbers are from ChEMBL document CHEMBL3507680.

# test-description: Human HepG2 cell viability assay in 384 well format
# Assay type: toxicity, cell-based
# Design: dose 125 nL, time 70.5 hour; concentration not given beside the values
# measurement-conditions: HepG2 cells, read-out: Inhibition
Class class 1: cytotoxicity at 70.5 h at least 10%. Class class 0: cytotoxicity at 70.5 h below 10%.

Answered cases to consult:
compound	class-label
O[C@H]1CCN(CC2CCOC2)[C@H]1Cc1ccncc1 (stereo partly specified)	class 0
OC1(CNCCN2CCCc3ccccc32)CCNC1 (stereo unspecified)	class 0
CCOCC1CN(C(=O)c2ccncn2)Cc2cnn(C)c21 (stereo unspecified)	class 0
CCC(C(=O)NCc1csc(-c2ncccn2)n1)n1cccn1 (stereo unspecified)	class 1
CCN(C)C(=O)c1ccc(N(C)Cc2cc(-c3cccnc3)no2)nc1	class 0

Moving on to another compound below.
Does CNc1ncccc1CN1CCC1c1cc(N)nc(C)n1 (stereo unspecified) have a reported cytotoxicity at 70.5 h of at least 10%?
class 1
